- studyTarget: human V1a receptor (Homo sapiens, UniProt P37288)
- Construct: host or cells: CHO cells
- Sequence (P37288 whole entry): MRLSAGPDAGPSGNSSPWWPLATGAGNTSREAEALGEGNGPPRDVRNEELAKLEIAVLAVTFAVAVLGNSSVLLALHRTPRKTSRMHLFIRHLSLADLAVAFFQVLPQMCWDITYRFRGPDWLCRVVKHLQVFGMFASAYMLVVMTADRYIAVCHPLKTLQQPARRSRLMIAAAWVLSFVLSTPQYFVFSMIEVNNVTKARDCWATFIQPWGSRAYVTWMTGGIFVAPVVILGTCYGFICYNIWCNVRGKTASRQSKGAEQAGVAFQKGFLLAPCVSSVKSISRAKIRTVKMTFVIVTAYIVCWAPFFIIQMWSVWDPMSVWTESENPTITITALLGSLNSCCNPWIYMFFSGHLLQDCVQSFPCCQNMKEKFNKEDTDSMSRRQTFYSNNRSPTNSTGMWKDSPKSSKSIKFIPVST
- methodSummary: Human vasopressin V1a receptor binding assay
- studyConditions: hV1a cell line (CHO), competition with 1 nM 3H-AVP, 45 minutes at 37° C.; read-out: V1a BINDING AFFINITY (IC50 (nM))
Mark t for IC50 under 4 nM, f if at or over.

compound: CC(C)(C)OC(=O)C[C@@H](C(=O)NCc1cccc(C(F)(F)F)c1)N1C(=O)[C@@H](N2C(=O)OC[C@@H]2c2ccccc2)[C@H]1/C=C/c1ccccc1
labelValue: f
//
compound: O=C(NCc1cccc(C(F)(F)F)c1)C(C(=O)N1CCC(N2CCCCC2)CC1)N1C(=O)[C@@H](N2C(=O)OC[C@@H]2c2ccccc2)[C@H]1/C=C/c1ccccc1 (mixture of isomers)
labelValue: f
//
compound: O=C(NCc1cccc(C(F)(F)F)c1)[C@H](CCC(=O)N1CCN(CCC2CCCCC2)CC1)N1C(=O)[C@@H](N2C(=O)OC[C@@H]2c2ccccc2)[C@H]1/C=C/c1ccccc1
labelValue: t
//
compound: O=C(NCc1cccc(C(F)(F)F)c1)[C@H](CCC(=O)N1CCN(Cc2ccccc2)CC1)N1C(=O)[C@@H](N2C(=O)OC[C@@H]2c2ccccc2)[C@H]1/C=C/c1ccccc1
labelValue: t
//
compound: O=C(NCc1cccc(C(F)(F)F)c1)[C@@H](CCC(=O)N1CCN(C2CCCCC2)CC1)N1C(=O)[C@@H](N2C(=O)OC[C@@H]2c2ccccc2)[C@H]1/C=C/c1ccccc1
labelValue: f
//
compound: O=C(NCc1cccc(C(F)(F)F)c1)C(C(=O)NC1CCN(Cc2ccccc2)CC1)N1C(=O)[C@@H](N2C(=O)OC[C@@H]2c2ccccc2)[C@H]1/C=C/c1ccccc1 (mixture of isomers)
labelValue: f
//
compound: O=C(NCc1cccc(C(F)(F)F)c1)[C@H](CC(=O)N1CCC(N2CCCCC2)CC1)N1C(=O)[C@@H](N2C(=O)OC[C@@H]2c2ccccc2)[C@H]1/C=C/c1ccccc1
labelValue: t
//
compound: O=C(NCc1cccc(C(F)(F)F)c1)[C@H](CCC(=O)N1CCN(Cc2ccc3c(c2)OCO3)CC1)N1C(=O)[C@@H](N2C(=O)OC[C@@H]2c2ccccc2)[C@H]1/C=C/c1ccccc1
labelValue: f

====

In this section we review reported IC50 values for a set of compounds.
- studyTarget: human V1a receptor (Homo sapiens, UniProt P37288)
- Construct: host or cells: CHO cells
- methodSummary: Human vasopressin V1a receptor binding assay
- studyConditions: hV1a cell line (CHO), competition with 1 nM 3H-AVP, 45 minutes at 37° C.; read-out: V1a BINDING AFFINITY (IC50 (nM))

compound: O=C(C[C@@H](C(=O)NCc1cccc(C(F)(F)F)c1)N1C(=O)[C@@H](N2C(=O)OC[C@@H]2c2ccccc2)[C@H]1/C=C/c1ccccc1)N[C@H]1CCN(Cc2ccccc2)C1 [Example 85]
operatorSymbol: =
IC50, nM: 5.87
//
compound: O=C(NCc1cccc(C(F)(F)F)c1)[C@@H](CC(=O)N1CCC(N2CCCCC2)CC1)N1C(=O)[C@@H](N2C(=O)OC[C@@H]2c2ccccc2)[C@H]1/C=C/c1ccccc1 [Example 133]
operatorSymbol: =
IC50, nM: 2.43
//
compound: O=C(CC[C@@H](C(=O)NCc1cccc(C(F)(F)F)c1)N1C(=O)[C@@H](N2C(=O)OC[C@@H]2c2ccccc2)[C@H]1/C=C/c1ccccc1)NCCN1CCCCC1 [Example 87]
operatorSymbol: =
IC50, nM: 15
//
compound: CN(C)CCNC(=O)CC[C@@H](C(=O)NCc1cccc(C(F)(F)F)c1)N1C(=O)[C@@H](N2C(=O)OC[C@@H]2c2ccccc2)[C@H]1/C=C/c1ccccc1 [Example 100]
operatorSymbol: <
IC50, nM: 100

====

In this section we review reported IC50 values for a set of compounds.
- studyTarget: human V1a receptor (Homo sapiens, UniProt P37288)
- Construct: host or cells: CHO cells
- methodSummary: Human vasopressin V1a receptor binding assay
- studyConditions: hV1a cell line (CHO), competition with 1 nM 3H-AVP, 45 minutes at 37° C.; read-out: V1a BINDING AFFINITY (IC50 (nM))

compound: O=C(NCc1cccc(C(F)(F)F)c1)[C@@H](CCC(=O)N1CCN(CCc2ccccc2)CC1)N1C(=O)[C@@H](N2C(=O)OC[C@@H]2c2ccccc2)[C@H]1/C=C/c1ccccc1
studyTarget: human V1a receptor (Homo sapiens, UniProt P37288)
operatorSymbol: =
IC50 / nM: 11
--
compound: O=C(NCc1cccc(C(F)(F)F)c1)[C@H](CC(=O)N1CCCN(Cc2ccccc2)CC1)N1C(=O)[C@@H](N2C(=O)OC[C@@H]2c2ccccc2)[C@H]1/C=C/c1ccccc1
studyTarget: human V1a receptor (Homo sapiens, UniProt P37288)
operatorSymbol: <
IC50 / nM: 50
--
compound: O=C(NCc1cccc(C(F)(F)F)c1)[C@H](CCC(=O)N1CCN(CCN2CCOCC2)CC1)N1C(=O)[C@@H](N2C(=O)OC[C@@H]2c2ccccc2)[C@H]1/C=C/c1ccccc1
studyTarget: human V1a receptor (Homo sapiens, UniProt P37288)
operatorSymbol: =
IC50 / nM: 1.34
--
compound: O=C(NCc1cccc(C(F)(F)F)c1)[C@H](CC(=O)N1CCN(C2CCCC2)CC1)N1C(=O)[C@@H](N2C(=O)OC[C@@H]2c2ccccc2)[C@H]1/C=C/c1ccccc1
studyTarget: human V1a receptor (Homo sapiens, UniProt P37288)
operatorSymbol: <
IC50 / nM: 100
--
compound: CC(C)(C)OC(=O)C(C(=O)NCc1cccc(C(F)(F)F)c1)N1C(=O)[C@@H](N2C(=O)OC[C@@H]2c2ccccc2)[C@H]1/C=C/c1ccccc1 (mixture of isomers)
studyTarget: human V1a receptor (Homo sapiens, UniProt P37288)
operatorSymbol: =
IC50 / nM: 35

====

In this section we review reported IC50 values for a set of compounds.
- studyTarget: human V1a receptor (Homo sapiens, UniProt P37288)
- Construct: host or cells: CHO cells
- methodSummary: Human vasopressin V1a receptor binding assay
- studyConditions: hV1a cell line (CHO), competition with 1 nM 3H-AVP, 45 minutes at 37° C.; read-out: V1a BINDING AFFINITY (IC50 (nM))
endpointName: IC50

compound: O=C(CC[C@@H](C(=O)NCc1cccc(C(F)(F)F)c1)N1C(=O)[C@@H](N2C(=O)OC[C@@H]2c2ccccc2)[C@H]1/C=C/c1ccccc1)NC1CCN(Cc2ccccc2)CC1
observedMeasurement: < 50 nM
//
compound: O=C(NCc1cccc(C(F)(F)F)c1)C(C(=O)N1CCN(CCc2ccccc2)CC1)N1C(=O)[C@@H](N2C(=O)OC[C@@H]2c2ccccc2)[C@H]1/C=C/c1ccccc1 (mixture of isomers)
observedMeasurement: < 25 nM
//
compound: O=C(NCc1cccc(C(F)(F)F)c1)C(C(=O)N1CCN(C2CCCCC2)CC1)N1C(=O)[C@@H](N2C(=O)OC[C@@H]2c2ccccc2)[C@H]1/C=C/c1ccccc1 (mixture of isomers)
observedMeasurement: < 20 nM
//
compound: CN1CCC(N2CCN(C(=O)CC[C@@H](C(=O)NCc3cccc(C(F)(F)F)c3)N3C(=O)[C@@H](N4C(=O)OC[C@@H]4c4ccccc4)[C@H]3/C=C/c3ccccc3)CC2)CC1
observedMeasurement: < 100 nM
//
compound: O=C(NCc1cccc(C(F)(F)F)c1)[C@@H](CCC(=O)N1CCC(N2CCCCC2)CC1)N1C(=O)[C@@H](N2C(=O)OC[C@@H]2c2ccccc2)[C@H]1/C=C/c1ccccc1
observedMeasurement: ~50 nM
//
compound: CCN(CC)CCN1CCN(C(=O)C[C@@H](C(=O)NCc2cccc(C(F)(F)F)c2)N2C(=O)[C@@H](N3C(=O)OC[C@@H]3c3ccccc3)[C@H]2/C=C/c2ccccc2)CC1
observedMeasurement: < 100 nM

====

In this section we review reported IC50 values for a set of compounds.
- studyTarget: human V1a receptor (Homo sapiens, UniProt P37288)
- Construct: host or cells: CHO cells
- methodSummary: Human vasopressin V1a receptor binding assay
- studyConditions: hV1a cell line (CHO), competition with 1 nM 3H-AVP, 45 minutes at 37° C.; read-out: V1a BINDING AFFINITY (IC50 (nM))
endpointName: IC50

itemSmiles: O=C(NCc1cccc(C(F)(F)F)c1)[C@H](CC(=O)N1CCN(CCN2CCCC2)CC1)N1C(=O)[C@@H](N2C(=O)OC[C@@H]2c2ccccc2)[C@H]1/C=C/c1ccccc1
studyTarget: human V1a receptor (Homo sapiens, UniProt P37288)
observedMeasurement: < 100 nM

itemSmiles: O=C(NCc1cccc(C(F)(F)F)c1)[C@H](CCC(=O)N1CCN(CC(=O)N2CCCC2)CC1)N1C(=O)[C@@H](N2C(=O)OC[C@@H]2c2ccccc2)[C@H]1/C=C/c1ccccc1
studyTarget: human V1a receptor (Homo sapiens, UniProt P37288)
observedMeasurement: ~100 nM

itemSmiles: O=C(CC[C@@H](C(=O)NCc1cccc(C(F)(F)F)c1)N1C(=O)[C@@H](N2C(=O)OC[C@@H]2c2ccccc2)[C@H]1/C=C/c1ccccc1)NCc1cccnc1
studyTarget: human V1a receptor (Homo sapiens, UniProt P37288)
observedMeasurement: ~100 nM
